# test: in vivo
# test settings: both, Sprague-Dawley, rat, iv, 20 mg/kg
Where a SMILES comes first, the peptide text is derived from it. Bridges are numbered along the chain shown (N, C = ends).
readout type: AUC (µg·h/mL)
A number alone suffices; assume µg·h/mL.

Query: Can you look up the measured AUC of CC[C@H](C)[C@@H]1NC(=O)[C@@H]2CSSC[C@H](NC(=O)[C@H](CCCNC(=N)N)NC(=O)[C@@H]3CSSC[C@H](NC1=O)C(=O)N[C@@H]([C@@H](C)O)C(=O)N[C@@H](CCCNC(=N)N)C(=O)NCC(=O)N[C@@H](Cc1ccccc1)C(=O)N3)C(=O)N[C@@H](CC(C)C)C(=O)N[C@H]1CSSC[C@H](NC(=O)[C@H](C(C)C)NC(=O)CNC(=O)[C@H](CCCNC(=N)N)NC(=O)[C@H](CCCNC(=N)N)NC1=O)C(=O)N[C@@H](CCCNC(=N)N)C(=O)N2 [Peptide 1] (cyclo(GFCRCLCRRGVCRCICTR); disulfide 3-16, 5-14, 7-12) for me?
Response: 127
